Target: CaV1.2 IQ domain IQ domain (Homo sapiens, UniProt Q13936, Ca2+)
Sequence (Q13936 1665-1685): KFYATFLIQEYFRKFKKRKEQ
Test: ITC, 15°C
pKd: −log10 of the molar value.

- BINDER: "CaBP1 C-lobe C-lobe (protein) ADMIGVKELRDAFREFDTNGDGEISTSELREAMRKLLGHQVGHRDIEEIIRDVDLNGDGRVDFEEFVRMMSR"
  pKd: 7.98
